Listed next: entries and their corresponding zone of inhibition at 50000 µg/mL.
System: Penicillium chrysogenum
experiment_notes: Antifungal activity against Penicillium chrysogenum CECT 2802 at 50 mg/ml after 72 hrs by agar diffusion test
Assay type: functional
assay_conditions: CECT 2802, 72 h, read-out: DIZ
readout_label: zone of inhibition at 50000 µg/mL

{"columns": ["smiles_record", "experimental_target", "value"],
 "data": [
  ["CC[C@H](CO)NC1c2ccccc2-c2ccccc21", "Penicillium chrysogenum", "20 mm"],
  ["CC[C@H](CO)NCc1c2ccccc2cc2ccccc12", "Penicillium chrysogenum", "16 mm"],
  ["CC[C@H](CO)NCc1cccc2ccccc12", "Penicillium chrysogenum", "22 mm"],
  ["CC[C@H](CO)NCc1ccc2c(c1)Cc1ccccc1-2", "Penicillium chrysogenum", "30 mm"],
  ["CC[C@H](CO)NCc1ccc2ccc3cccc4ccc1c2c34", "Penicillium chrysogenum", "14 mm"],
  ["CC[C@H](CO)NCc1ccccc1O", "Penicillium chrysogenum", "12 mm"],
  ["CC[C@H](CO)Nc1cccc(Br)n1", "Penicillium chrysogenum", "17 mm"],
  ["CC[C@H](CO)NCc1ccc2ccccc2c1", "Penicillium chrysogenum", "35 mm"],
  ["CC[C@H](CO)NCc1ccc(-c2ccccc2)cc1", "Penicillium chrysogenum", "40 mm"],
  ["CC[C@H](CO)N1C(=O)C=C(C)C1=O", "Penicillium chrysogenum", "25 mm"],
  ["CC[C@@H]1COc2cc3ccccc3c(=O)n21", "Penicillium chrysogenum", "35 mm"],
  ["CC[C@H](CO)N1Cc2ccccc2C1", "Penicillium chrysogenum", "10 mm"],
  ["CC[C@H](CO)N1C(=O)c2cccc3cccc(c23)C1=O", "Penicillium chrysogenum", "10 mm"]
]}

Data provenance is ChEMBL document CHEMBL1932986.
